The measurements presented in this section are drawn from PubChem BioAssay (NCI).

Listing of entries alongside the reported growth.
# System: LOX IMVI melanoma
# MEASUREMENT_PROTOCOL: NCI-60 one-dose screen, 48 h (100 = growth as untreated, 0 = no growth, -100 = all killed)
# MEASUREMENT_PARAMETERS: 10 µM unless noted
The panel holds about 83,000 compounds, 20% with a hit somewhere; the sample as a whole holds those more often.

| MOLECULE | TESTED_ON | growth / % |
| --- | --- | --- |
| N#Cc1c(NC(=O)c2ccccc2I)sc2c1CCCC2 | LOX IMVI melanoma | 36.8 |
| COc1cc2cc(Oc3ccc(NC(=O)Nc4cc(C(F)(F)F)cc(C(F)(F)F)c4)cc3)c(C)nc2cc1OCCN1CCCCC1 | LOX IMVI melanoma | -99.1 |
| Cc1nc(Nc2ccc(S(=O)(=O)Nc3cc(C)on3)cc2)c2ccccc2n1 | LOX IMVI melanoma | 102 |
| OC(CBr)c1ccnc2ccccc12 (stereo unspecified) | LOX IMVI melanoma | 96.3 |
| CC(C)n1nc(C#Cc2cccc(O)c2)c2c(N)ncnc21 | LOX IMVI melanoma | -92.4 |
| CCNCCNc1cc(-c2ccc(C(F)(F)F)cc2)c(C#N)c2nc3cc(Cl)c(Cl)cc3n12 | LOX IMVI melanoma | -74 |
| COc1ccc(/C(C)=C(\c2ccc(Cl)cc2)c2ccc(OCCN(C)C)cc2)cc1F | LOX IMVI melanoma | -44.6 |
| O=C(Oc1ccc([N+](=O)[O-])cc1)c1ccc(CBr)cc1 | LOX IMVI melanoma | 67.2 |
| COc1ccc(C(=O)/C=C/C23c4ccccc4C(c4ccccc42)C2C(=O)NC(=O)C23)cc1 (stereo unspecified) | LOX IMVI melanoma | 90.1 |
| CCOC(=O)c1c(C)[nH]c(C(=O)CCC(=O)OC)c1C | LOX IMVI melanoma | 103 |
| O=c1ccn(C2OC(F)(CO)C(O)C2F)c(=O)[nH]1 (stereo unspecified) | LOX IMVI melanoma | 97.3 |
| CN(C)CCCCNc1ccc(NCCCCN(C)C)c2c1C(=O)c1c(O)ccc(O)c1C2=O | LOX IMVI melanoma | -79 |
| Nc1nc(N)c(-c2ccc(Cl)cc2)c(/C=C/c2ccc([N+](=O)[O-])cc2)n1 | LOX IMVI melanoma | 60.6 |
| O=[N+]([O-])c1ccccc1C(O)Cc1ccc2ccccc2n1 (stereo unspecified) | LOX IMVI melanoma | 93 |
| CN1CCN(C(=O)[C@]23CCC(C)(C)C[C@@H]2C2=CC[C@@H]4[C@@]5(C)Cc6c([nH]c7ccccc67)C(C)(C)[C@@H]5CC[C@@]4(C)[C@]2(C)CC3)CC1 | LOX IMVI melanoma | 77.4 |
| CC(=O)c1cc2c(o1)C(=O)c1ccccc1C2=O | LOX IMVI melanoma | -59.3 |
| CC1=NN(c2cccc(Cl)c2)C(=O)/C1=C\c1cn(CC(O)CN2CCCCC2)c2ccccc12 (stereo unspecified) | LOX IMVI melanoma | 11 |
| CNCCNc1nc2ccccc2c2c(=O)c3cc(F)ccc3oc12 | LOX IMVI melanoma | 44.6 |
| NC(=O)CC1(O)C=C(Br)C(=O)C(Br)=C1 | LOX IMVI melanoma | 86.1 |
| Cn1ncc2c(Nc3ccc(Br)cc3)nc(Nc3ccc(Br)cc3)nc21 | LOX IMVI melanoma | -5.28 |
| CCN(CC)S(=O)(=O)c1ccc(O)c(NC(=O)c2[nH]c(C)c(C(C)=O)c2CCc2ccc(Cl)cc2)c1 | LOX IMVI melanoma | 39.5 |
